assayedTarget: recombinant human PLK1[2-369]T210D (Homo sapiens, UniProt P53350, T210D)
Construct: recombinant human PLK1[2-369]T210D; Smt (SUMO) fusion partner (N, cleaved yes)
Sequence (P53350 2-369 T210D): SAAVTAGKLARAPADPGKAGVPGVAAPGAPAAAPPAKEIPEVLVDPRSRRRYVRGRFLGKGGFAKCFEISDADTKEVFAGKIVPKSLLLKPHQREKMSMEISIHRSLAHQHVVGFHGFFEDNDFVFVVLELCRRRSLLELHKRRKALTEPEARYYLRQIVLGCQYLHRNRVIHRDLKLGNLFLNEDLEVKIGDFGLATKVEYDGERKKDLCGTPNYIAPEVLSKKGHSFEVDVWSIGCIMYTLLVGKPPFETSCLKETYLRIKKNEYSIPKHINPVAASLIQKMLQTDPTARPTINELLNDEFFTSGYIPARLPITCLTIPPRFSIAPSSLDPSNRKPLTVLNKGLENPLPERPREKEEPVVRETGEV
testName: PLK1 DELFIA Kinase Assay
conditionsUsed: 50 μM ATP, 2 μM peptide substrate, 0.3 nM enzyme, 90 minutes at room temperature
pIC50: −log10 of the molar value.
metricName: pIC50

These solved cases illustrate the format of a correct answer.
[[record]]
smi = "Cc1ncc(CCN2CCCCC2)cc1Nc1ncc2c(n1)-c1ccc(C(F)(F)F)cc1NC(=S)C2"
metricname = "pIC50"
measured = "> 8.30"

[[record]]
smi = "Cc1nc(N(C)C2CCN(C)CC2)ccc1Nc1ncc2c(n1)-c1ccc(Cl)cc1NC(=S)C2"
metricname = "pIC50"
measured = "> 8.30"

[[record]]
smi = "Cc1nc(OC2CCN(C)CC2)ccc1Nc1ncc2c(n1)-c1ccc(Cl)cc1NC(=S)C2"
metricname = "pIC50"
measured = "7.60 to 8.30"


Here is the next item to consider.
Notebook: "Cc1ncc(C2CCN(C)CC2)cc1Nc1ncc2c(n1)-c1ccc(Cl)cc1NC(=S)C2" , pIC50 read as > 8.30

====

assayedTarget: recombinant human PLK1[2-369]T210D (Homo sapiens, UniProt P53350, T210D)
Construct: recombinant human PLK1[2-369]T210D; Smt (SUMO) fusion partner (N, cleaved yes)
testName: PLK1 DELFIA Kinase Assay
conditionsUsed: 50 μM ATP, 2 μM peptide substrate, 0.3 nM enzyme, 90 minutes at room temperature
metricName: IC50

Examples with answers:
[[record]]
molecule = "Cc1ncc(CCCN(C)C)cc1Nc1ncc2c(n1)-c1ccc(C3CC3)cc1NC(=S)C2"
measured = "< 5 nM"

[[record]]
molecule = "Cc1nc(C(=O)NC2CCN(C)CC2)ccc1Nc1ncc2c(n1)-c1ccc(Cl)cc1NC(=S)C2"
measured = "5 to 25 nM"

[[record]]
molecule = "Cc1nc2c(cc1Nc1ncc3c(n1)-c1ccc(C(F)(F)F)cc1NC(=S)C3)CN(C)CC2"
measured = "< 5 nM"

[[record]]
molecule = "CCc1ncc(CCCN(C)C)cc1Nc1ncc2c(n1)-c1ccc(Cl)cc1NC(=S)C2"
measured = "< 5 nM"


// recorded IC50 for "Cc1ncc(CCN2CCN(C)CC2)cc1Nc1ncc2c(n1)-c1ccc(Cl)cc1NC(=S)C2" : < 5 nM

Please fill in: IC50 reported for Cc1nc(N2CCCC(N(C)C)C2)ccc1Nc1ncc2c(n1)-c1ccc(Cl)cc1NC(=S)C2 (stereo not shown) = < 5 nM

====

assayedTarget: recombinant human PLK1[2-369]T210D (Homo sapiens, UniProt P53350, T210D)
Construct: recombinant human PLK1[2-369]T210D; Smt (SUMO) fusion partner (N, cleaved yes)
testName: PLK1 DELFIA Kinase Assay
conditionsUsed: 50 μM ATP, 2 μM peptide substrate, 0.3 nM enzyme, 90 minutes at room temperature
pIC50: −log10 of the molar value.
// reported pIC50 per item

[[record]]
molecule = "Cc1ncc(N2CCN(C)CC2)cc1Nc1ncc2c(n1)-c1ccc(Cl)cc1NC(=S)C2 [Compound I-103]"
metricname = "pIC50"
measured = "> 8.30"


The reported pIC50 of the molecule Cc1ncc(CCNC2CCCC2)cc1Nc1ncc2c(n1)-c1ccc(Cl)cc1NC(=S)C2 [Compound I-30] was < 7.60

Short answer for Cc1nc(NC2CCOCC2)ccc1Nc1ncc2c(n1)-c1ccc(Cl)cc1NC(=S)C2 [Compound I-19] : pIC50 was > 8.30

Value of pIC50 reported for the molecule Cc1nc(NC(C)C)ccc1Nc1ncc2c(n1)-c1ccc(C(F)(F)F)cc1NC(=S)C2 [Compound I-57] is > 8.30
